- assay_target: PTPN2 (Mus musculus, UniProt Q06180)
- Construct: HiBiT; host or cells: B16F10.4
- Sequence (Q06180 whole entry): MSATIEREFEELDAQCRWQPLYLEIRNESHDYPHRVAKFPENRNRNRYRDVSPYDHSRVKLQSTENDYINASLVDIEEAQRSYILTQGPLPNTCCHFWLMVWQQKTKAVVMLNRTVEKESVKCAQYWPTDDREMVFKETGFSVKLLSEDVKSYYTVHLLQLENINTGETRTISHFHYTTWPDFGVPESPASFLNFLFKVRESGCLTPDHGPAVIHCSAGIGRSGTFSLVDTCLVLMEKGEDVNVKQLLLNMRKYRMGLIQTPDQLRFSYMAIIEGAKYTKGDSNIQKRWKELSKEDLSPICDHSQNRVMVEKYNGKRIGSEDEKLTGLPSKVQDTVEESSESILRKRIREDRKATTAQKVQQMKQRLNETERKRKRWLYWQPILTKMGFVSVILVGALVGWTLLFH
- run_description: HiBiT PTPN2 degradation in B16F10.4 cells, 24 hours
- Format: cell-based
Below, each entry is listed with its recorded DC50.

Worked set:
[
  {
    "compound": "Cn1nc(C2CCC(=O)NC2=O)c2ccc(Oc3ccc(CC(=O)Nc4ccc5c(F)c(N6CC(=O)NS6(=O)=O)c(O)cc5c4)cc3)cc21 (stereo not shown)",
    "DC50": "150 to 500 nM"
  },
  {
    "compound": "Cn1c(=O)n(C2CCC(=O)NC2=O)c2ccc(-c3ccc(NCC4CC4C(=O)Nc4ccc5c(F)c(N6CC(=O)NS6(=O)=O)c(O)cc5c4)cc3)cc21 (stereo not shown)",
    "DC50": "50 to 150 nM"
  },
  {
    "compound": "Cn1c(=O)n(C2CCC(=O)NC2=O)c2ccc3c(c21)CCCN3CCCCC(=O)Nc1ccc2c(F)c(N3CC(=O)NS3(=O)=O)c(O)cc2c1 (stereo not shown)",
    "DC50": "50 to 150 nM"
  },
  {
    "compound": "CCn1c(=O)n(C2CCC(=O)NC2=O)c2ccc(-c3ccc(CC(=O)Nc4ccc5c(F)c(N6CC(=O)NS6(=O)=O)c(O)cc5c4)cc3)cc21 (stereo not shown)",
    "DC50": "50 to 150 nM"
  },
  {
    "compound": "Cn1c(=O)n(C2CCC(=O)NC2=O)c2ccc(N3CCC(O)(CC(=O)N4CC[C@H](c5ccc6cc(O)c(N7CC(=O)NS7(=O)=O)c(F)c6c5)C4)CC3)cc21 (stereo partly shown)",
    "DC50": "150 to 500 nM"
  }
]

Ask: Kindly state the measured DC50 obtained for Cn1c(=O)n(C2CCC(=O)NC2=O)c2ccc3c(c21)CCCN3C1CCN(CC(=O)Nc2ccc3c(F)c(N4CC(=O)NS4(=O)=O)c(O)cc3c2)CC1 (stereo not shown) with PTPN2 (Mus musculus, UniProt Q06180).
Reply: ≥ 500 nM

Ask: Kindly state the measured DC50 obtained for Cn1c(=O)n(C2CCC(=O)NC2=O)c2cc(F)c(N3CCN(CC(=O)Nc4ccc5c(F)c(N6CC(=O)NS6(=O)=O)c(O)cc5c4)CC3)cc21 (stereo not shown) with PTPN2 (Mus musculus, UniProt Q06180).
Reply: 150 to 500 nM

Ask: Kindly state the measured DC50 obtained for Cn1c(=O)n(C2CCC(=O)NC2=O)c2ccc([C@H]3CCN(CC(=O)Nc4ccc5c(F)c(N6CC(=O)NS6(=O)=O)c(O)cc5c4)C[C@@H]3F)cc21 (stereo partly shown) with PTPN2 (Mus musculus, UniProt Q06180).
Reply: 50 to 150 nM

Ask: Kindly state the measured DC50 obtained for Cn1c(=O)n(C2CCC(=O)NC2=O)c2ccc([C@H]3CCN(CC(=O)Nc4ccc5c(F)c(N6CC(=O)NS6(=O)=O)c(O)cc5c4)C[C@@H]3O)cc21 (stereo partly shown) with PTPN2 (Mus musculus, UniProt Q06180).
Reply: 50 to 150 nM

Ask: Kindly state the measured DC50 obtained for Cn1c(=O)n(C2CCC(=O)NC2=O)c2ccc(C3CCN(CC(=O)Nc4ccc5c(F)c(N6CC(=O)NS6(=O)=O)c(O)cc5c4)CC3F)cc21 (stereo not shown) with PTPN2 (Mus musculus, UniProt Q06180).
Reply: < 50 nM

Ask: Kindly state the measured DC50 obtained for Cn1c(=O)n(C2CCC(=O)NC2=O)c2cc(F)c(N3CCC(O)(CC(=O)Nc4ccc5c(F)c(N6CC(=O)NS6(=O)=O)c(O)cc5c4)CC3)cc21 (stereo not shown) with PTPN2 (Mus musculus, UniProt Q06180).
Reply: 150 to 500 nM

Ask: Kindly state the measured DC50 obtained for Cn1c(=O)n(C2CCC(=O)NC2=O)c2ccc(C3CCN(CCNC(=O)Nc4ccc5c(F)c(N6CC(=O)NS6(=O)=O)c(O)cc5c4)CC3)cc21 (stereo not shown) with PTPN2 (Mus musculus, UniProt Q06180).
Reply: 50 to 150 nM

Ask: Kindly state the measured DC50 obtained for C[C@H]1CN(c2ccc3c(c2)n(C)c(=O)n3C2CCC(=O)NC2=O)CCN1CC(=O)Nc1ccc2c(F)c(N3CC(=O)NS3(=O)=O)c(O)cc2c1 (stereo partly shown) with PTPN2 (Mus musculus, UniProt Q06180).
Reply: 50 to 150 nM

Ask: Kindly state the measured DC50 obtained for O=C1CCC(n2c(=O)n(C3COC3)c3cc(C4CCN(CC(=O)Nc5ccc6c(F)c(N7CC(=O)NS7(=O)=O)c(O)cc6c5)CC4)ccc32)C(=O)N1 (stereo not shown) with PTPN2 (Mus musculus, UniProt Q06180).
Reply: 150 to 500 nM

Ask: Kindly state the measured DC50 obtained for Cn1c(=O)n(C2CCC(=O)NC2=O)c2ccc(N3[C@@H]4CC[C@H]3C[C@H](CC(=O)Nc3ccc5c(F)c(N6CC(=O)NS6(=O)=O)c(O)cc5c3)C4)cc21 (stereo partly shown) with PTPN2 (Mus musculus, UniProt Q06180).
Reply: 150 to 500 nM

Ask: Kindly state the measured DC50 obtained for Cn1c(=O)n(C2CCC(=O)NC2=O)c2ccc(CC3CCN(C(=O)Nc4ccc5c(F)c(N6CC(=O)NS6(=O)=O)c(O)cc5c4)CC3)cc21 (stereo not shown) with PTPN2 (Mus musculus, UniProt Q06180).
Reply: ≥ 500 nM

Ask: Kindly state the measured DC50 obtained for Cn1c(=O)n(C2CCC(=O)NC2=O)c2ccc(-c3cccc(CCC(=O)Nc4ccc5c(F)c(N6CC(=O)NS6(=O)=O)c(O)cc5c4)c3)cc21 (stereo not shown) with PTPN2 (Mus musculus, UniProt Q06180).
Reply: 150 to 500 nM

---

Below, each entry is listed with its recorded DC50.
- assay_target: PTPN2 (Homo sapiens, UniProt P17706)
- Construct: expressed in transfected cells; host or cells: 293T.109 (HiBiT-PTPN2), derived from 293T WT (ATCC)
- Sequence (P17706 whole entry): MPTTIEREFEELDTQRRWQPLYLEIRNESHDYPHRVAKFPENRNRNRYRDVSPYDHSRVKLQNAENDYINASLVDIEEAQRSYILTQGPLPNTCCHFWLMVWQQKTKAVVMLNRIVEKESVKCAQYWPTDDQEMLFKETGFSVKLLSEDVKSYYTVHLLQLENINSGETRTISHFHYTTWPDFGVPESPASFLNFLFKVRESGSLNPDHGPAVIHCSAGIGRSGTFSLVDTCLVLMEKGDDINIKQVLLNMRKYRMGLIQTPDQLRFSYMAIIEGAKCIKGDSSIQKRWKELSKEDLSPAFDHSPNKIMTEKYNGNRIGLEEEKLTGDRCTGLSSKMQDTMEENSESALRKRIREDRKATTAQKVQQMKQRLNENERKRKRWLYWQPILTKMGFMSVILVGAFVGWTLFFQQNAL
- run_description: HiBiT PTPN2 degradation in 293T.109 (HiBiT-PTPN2) cells, 24 hours
- Type: cell-based
- condition_label: 293T.109 cells

Worked set:
[
  {
    "compound": "Cn1c(=O)n(C2CCC(=O)NC2=O)c2ccc(N3CCN(CC(=O)Nc4ccc5c(F)c(N6CC(=O)NS6(=O)=O)c(O)cc5c4)CC3)c(F)c21 (centres unmarked) [Degrader 57]",
    "DC50": "50 to 150 nM"
  },
  {
    "compound": "Cn1c(=O)n(C2CCC(=O)NC2=O)c2ccc(C3CCN(CC4CC4C(=O)N4CC[C@H](c5ccc6cc(O)c(N7CC(=O)NS7(=O)=O)c(F)c6c5)C4)CC3)cc21 (some centres unmarked) [Degrader 17]",
    "DC50": "50 to 150 nM"
  }
]

Ask: Reported DC50, compound Cn1c(=O)n(C2CCC(=O)NC2=O)c2ccc(N3CCC(C(C)(C)C(=O)Nc4ccc5c(F)c(N6CC(=O)NS6(=O)=O)c(O)cc5c4)CC3)cc21 (centres unmarked) [Degrader 118] : ____
Reply: ≥ 500 nM

Ask: Reported DC50, compound Cn1c(=O)n(C2CCC(=O)NC2=O)c2ccc3c(c21)CCCN3C1CCN(CC(=O)Nc2ccc3c(F)c(N4CC(=O)NS4(=O)=O)c(O)cc3c2)CC1 (centres unmarked) [Degrader 75] : ____
Reply: ≥ 500 nM

Ask: Reported DC50, compound O=C1CCC(n2c(=O)n(C3COC3)c3cc(C4CCN(CC(=O)Nc5ccc6c(F)c(N7CC(=O)NS7(=O)=O)c(O)cc6c5)CC4)ccc32)C(=O)N1 (centres unmarked) [Degrader 9] : ____
Reply: 150 to 500 nM

Ask: Reported DC50, compound C[C@H](C(=O)Nc1ccc2c(F)c(N3CC(=O)NS3(=O)=O)c(O)cc2c1)N1CCC(c2ccc3c(c2)n(C)c(=O)n3C2CCC(=O)NC2=O)CC1 (some centres unmarked) [Degrader 103] : ____
Reply: < 50 nM

Ask: Reported DC50, compound Cn1c(=O)n(C2CCC(=O)NC2=O)c2ccc(C3CCN(CC4CC4C(=O)N4CC[C@@H](c5ccc6cc(O)c(N7CC(=O)NS7(=O)=O)c(F)c6c5)C4)CC3)cc21 (some centres unmarked) [Degrader 18] : ____
Reply: 50 to 150 nM

Ask: Reported DC50, compound Cn1cc(C(=O)Nc2ccc3c(F)c(N4CC(=O)NS4(=O)=O)c(O)cc3c2)c2ccc(-c3ccc4c(c3)n(C)c(=O)n4C3CCC(=O)NC3=O)cc21 (centres unmarked) [Degrader 82] : ____
Reply: 150 to 500 nM

Ask: Reported DC50, compound C[C@H]1CN(c2ccc3c(c2)n(C)c(=O)n3C2CCC(=O)NC2=O)CC[C@@H]1CC(=O)Nc1ccc2c(F)c(N3CC(=O)NS3(=O)=O)c(O)cc2c1 (some centres unmarked) [Degrader 133] : ____
Reply: 50 to 150 nM

Ask: Reported DC50, compound Cn1c(=O)n(C2CCC(=O)NC2=O)c2ccc3c(c21)CCCN3CCCC(=O)Nc1ccc2c(F)c(N3CC(=O)NS3(=O)=O)c(O)cc2c1 (centres unmarked) [Degrader 145] : ____
Reply: ≥ 500 nM

Ask: Reported DC50, compound Cn1c(=O)n(C2CCC(=O)NC2=O)c2ccc(N3CCc4cc(CC(=O)Nc5ccc6c(F)c(N7CC(=O)NS7(=O)=O)c(O)cc6c5)ccc43)cc21 (centres unmarked) [Degrader 119] : ____
Reply: 150 to 500 nM
